ASSAY TARGET: xanthine oxidase (Bos taurus)
Construct: gene XDH
Sequence (P80457 2-1332): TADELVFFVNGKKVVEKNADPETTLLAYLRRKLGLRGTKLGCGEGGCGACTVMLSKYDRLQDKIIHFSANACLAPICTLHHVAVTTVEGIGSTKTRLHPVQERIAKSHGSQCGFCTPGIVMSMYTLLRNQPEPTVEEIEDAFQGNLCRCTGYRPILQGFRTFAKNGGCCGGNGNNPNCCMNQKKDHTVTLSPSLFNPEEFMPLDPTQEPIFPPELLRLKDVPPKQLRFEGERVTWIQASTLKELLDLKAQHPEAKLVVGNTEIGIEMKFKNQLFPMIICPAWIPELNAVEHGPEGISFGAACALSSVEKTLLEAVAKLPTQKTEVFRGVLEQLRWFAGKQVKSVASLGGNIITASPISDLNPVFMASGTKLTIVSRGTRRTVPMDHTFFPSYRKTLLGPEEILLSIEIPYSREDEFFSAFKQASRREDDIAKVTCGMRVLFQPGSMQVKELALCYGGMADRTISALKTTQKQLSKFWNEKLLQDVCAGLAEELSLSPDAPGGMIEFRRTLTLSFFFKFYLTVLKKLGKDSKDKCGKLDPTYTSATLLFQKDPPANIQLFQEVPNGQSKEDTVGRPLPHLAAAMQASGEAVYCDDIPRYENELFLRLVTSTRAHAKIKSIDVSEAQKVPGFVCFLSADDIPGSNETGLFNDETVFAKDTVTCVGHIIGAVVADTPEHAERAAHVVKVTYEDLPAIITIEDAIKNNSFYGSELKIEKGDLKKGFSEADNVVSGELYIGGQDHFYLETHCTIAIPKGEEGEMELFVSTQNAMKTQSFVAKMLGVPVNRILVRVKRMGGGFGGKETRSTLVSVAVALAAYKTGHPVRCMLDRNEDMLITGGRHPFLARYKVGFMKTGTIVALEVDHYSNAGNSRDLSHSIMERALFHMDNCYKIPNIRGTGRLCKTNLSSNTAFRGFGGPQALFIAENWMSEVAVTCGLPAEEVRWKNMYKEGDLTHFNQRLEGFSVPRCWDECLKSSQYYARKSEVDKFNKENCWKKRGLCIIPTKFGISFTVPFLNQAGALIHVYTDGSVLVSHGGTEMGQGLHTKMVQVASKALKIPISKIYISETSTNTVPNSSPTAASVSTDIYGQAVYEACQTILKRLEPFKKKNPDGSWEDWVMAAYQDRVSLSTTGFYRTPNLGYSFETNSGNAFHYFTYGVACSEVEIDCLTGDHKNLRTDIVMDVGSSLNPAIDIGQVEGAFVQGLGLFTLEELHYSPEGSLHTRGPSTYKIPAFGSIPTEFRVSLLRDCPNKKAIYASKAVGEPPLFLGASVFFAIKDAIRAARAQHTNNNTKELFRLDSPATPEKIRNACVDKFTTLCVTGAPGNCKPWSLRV
EXPERIMENT SUMMARY: XO activity assay (uric acid absorbance at […] nm) with Lineweaver-Burk kinetics (Ki […]); also retained by XO in ultrafiltration UPLC-MS
Type: biochemical
OBSERVED PROPERTY: IC50
Answer as a quantity: numeral, then unit.

Reported IC50 for O=c1cc(-c2ccc(O)c(O)c2)oc2cc(O)cc(O)c12 : what is it?
1500 nM
